Reference for the values: ChEMBL document CHEMBL4382295

assay: Cytotoxicity against human MEC1 cells assessed as cell viability at 1 to 100 uM after 48 to 72 hrs by CCK8 assay relative to control; assay type: cell-based; conditions: read-out: Activity
readoutLabel: viability at up to 100 µM

structureassmiles=CC1(C)OB(c2ccc(Cn3cc(F)c(=O)[nH]c3=O)cc2)OC1(C)C readoutlabel="viability at up to 100 µM" testvalue="> 95%"
structureassmiles=O=c1[nH]c(=O)n(Cc2ccc(B(O)O)cc2)cc1F readoutlabel="viability at up to 100 µM" testvalue="> 95%"
